# Test system: NCI-H522
# test protocol: NCI tumour cell line growth inhibition, 48 h
The source made the active and inactive calls. Cut-off read from the data, not from the text of the source: active = GI50 up to about 1.1 µM and inactive = higher.
Some molecules, each annotated with its measured GI50.

[C-]#[N+]C(C)(C)C[C@H]1CC(C)C2CCC(C)C3([N+]#[C-])CCC(=C)C1[C@H]23 (stereo partly specified)    1.95 µM (inactive)
N#Cc1ccc([N+](=O)[O-])cc1NC(N)=S    > 100 µM (inactive)

Query :: Can you share its GI50? I mean this molecule: "COc1cc(OCc2ccccc2)c2c(CCC(=O)O)cc(=O)oc2c1.COc1cc(OCc2ccccc2)cc2oc(=O)cc(CCC(=O)O)c12"
Result :: 42.5 µM (inactive)
